# Experiment summary: In vivo PK study
# Set-up: species or system Sprague-Dawley (SD) rats
# Test conditions: female, Sprague-Dawley, rat, plasma, iv, 2 mg/kg
Measured property: clearance (mL/min/kg)
Reply numerically in mL/min/kg, unit not repeated.

Qu. Recorded clearance of Cc1cc(Nc2ccc(C(=O)N/N=C/c3scnc3C)cc2)c2cccc(O)c2n1 , please.
Ans. 143

====

# Test system: SMMC-7721
# Experiment summary: MTT assay, SMMC-7721 cells
# Type: cell-based, human
# Test conditions: Homo sapiens, SMMC-7721, 48 h, read-out: IC50 SMMC-7721
Exercise: state measured pIC50 for each of the compounds provided.
The quantity pIC50 is defined as the negative base-10 logarithm of the molar concentration.

Qu. Give SMMC-7721 pIC50 for CSc1ccc(/C=N/NC(=O)c2ccc(Nc3cc(C)nc4c(O)cccc34)cc2)cc1 [7E]
Ans. 4.64

Qu. Likewise for Cc1cc(Nc2ccc(C(=O)N/N=C/c3cc4ccccc4nc3Cl)cc2)c2cccc(O)c2n1 [7U] ?
Ans. 4.70

Qu. Likewise for Cc1cc(Nc2ccc(C(=O)N/N=C/c3ccc(C(F)(F)F)cc3)cc2)c2cccc(O)c2n1 [7H] ?
Ans. 4.56

Qu. Likewise for Cc1cc(Nc2ccc(C(=O)N/N=C/c3cc(C(F)(F)F)ccc3F)cc2)c2cccc(O)c2n1 [7P] ?
Ans. 5.05

Qu. Likewise for Cc1cc(Nc2ccc(C(=O)N/N=C/c3ccccc3Cl)cc2)c2cccc(O)c2n1 [7F] ?
Ans. 4.75

Qu. Likewise for Cc1cc(Nc2ccc(C(=O)N/N=C/c3sccc3Br)cc2)c2cccc(O)c2n1 [7B] ?
Ans. 4.58

Qu. Likewise for Cc1cc(Nc2ccc(C(=O)N/N=C/c3ccsc3)cc2)c2cccc(O)c2n1 [7A] ?
Ans. 4.28

Qu. Likewise for Cc1cc(Nc2ccc(C(=O)N/N=C/c3ccc4ccccc4c3)cc2)c2cccc(O)c2n1 [7S] ?
Ans. 4.65

Qu. Likewise for Cc1cc(Nc2ccc(C(=O)N/N=C/c3scnc3C)cc2)c2cccc(O)c2n1 [TMHA37] ?
Ans. 5.11

====

# Experiment summary: In vivo PK study
# Design: species or system Sprague-Dawley (SD) rats
# Test conditions: female, Sprague-Dawley, rat, plasma, iv, 2 mg/kg
Measured property: AUC(0-inf)
Answer format reminder: number followed by unit.

Qu. Recorded AUC(0-inf) of Cc1cc(Nc2ccc(C(=O)N/N=C/c3scnc3C)cc2)c2cccc(O)c2n1 , please.
Ans. 247 ng·h/mL

====

# System: HuH7
# Experiment summary: MTT assay, HuH7 cells
# Type: cell-based, human
# Test conditions: Homo sapiens, Huh-7, 48 h, read-out: IC50 HuH7
Exercise: state measured pIC50 for each of the molecules provided.
The quantity pIC50 is defined as the negative base-10 logarithm of the molar concentration.

Qu. Recorded pIC50 of CC1=C(O)C(=O)C=C2C1=CC=C1[C@@]2(C)CC[C@@]2(C)[C@@H]3C[C@](C)(C(=O)O)CC[C@]3(C)CC[C@]12C [Celastrol, reference compound] , please.
Ans. 4.46

Qu. Likewise for Cc1cc(Nc2ccc(C(=O)N/N=C/c3ccc(F)c(C(F)(F)F)c3)cc2)c2cccc(O)c2n1 ?
Ans. 4.54

Qu. Likewise for Cc1cc(Nc2ccc(C(=O)N/N=C/c3ccccc3Cl)cc2)c2cccc(O)c2n1 ?
Ans. 4.65

Qu. Likewise for Cc1cc(Nc2ccc(C(=O)N/N=C/c3ccc(F)cc3Br)cc2)c2cccc(O)c2n1 ?
Ans. 4.86

Qu. Likewise for COc1ccc(F)c(/C=N/NC(=O)c2ccc(Nc3cc(C)nc4c(O)cccc34)cc2)c1 ?
Ans. 4.46

====

Exercise: state measured IC50 for each of the compounds provided.
# Tested on: SMMC-7721
# Experiment summary: MTT assay, SMMC-7721 cells
# Type: cell-based, human
# Test conditions: Homo sapiens, SMMC-7721, 48 h, read-out: IC50 SMMC-7721
Reply numerically in µM, unit not repeated.

Qu. Recorded IC50 of Cc1cc(Nc2ccc(C(=O)N/N=C/c3csc4ccccc34)cc2)c2cccc(O)c2n1 , please.
Ans. 21.7

Qu. Likewise for Cc1cc(Nc2ccc(C(=O)N/N=C/c3ccc(F)c(Br)c3)cc2)c2cccc(O)c2n1 ?
Ans. 21.1

Qu. Likewise for Cc1cc(Nc2ccc(C(=O)N/N=C/c3cc(Br)cs3)cc2)c2cccc(O)c2n1 ?
Ans. 16

Qu. Likewise for Cc1cc(Nc2ccc(C(=O)N/N=C/c3cccc(Br)n3)cc2)c2cccc(O)c2n1 ?
Ans. 45.8

Qu. Likewise for Cc1cc(Nc2ccc(C(=O)N/N=C/c3cccc(F)c3F)cc2)c2cccc(O)c2n1 ?
Ans. 25.4

Qu. Likewise for Cc1cc(Nc2ccc(C(=O)N/N=C/c3ccc(Br)c(F)c3)cc2)c2cccc(O)c2n1 ?
Ans. 18.2

Qu. Likewise for Cc1cc(Nc2ccc(C(=O)N/N=C/c3ccc(F)c(C(F)(F)F)c3)cc2)c2cccc(O)c2n1 ?
Ans. 21.6

Qu. Likewise for COc1ccc(/C=N/NC(=O)c2ccc(Nc3cc(C)nc4c(O)cccc34)cc2)c2ccccc12 ?
Ans. 23.9

Qu. Likewise for COc1cc(/C=N/NC(=O)c2ccc(Nc3cc(C)nc4c(O)cccc34)cc2)cc(OC)c1 ?
Ans. 37.2

====

# Experiment summary: In vivo PK study
# Design: species or system Sprague-Dawley (SD) rats
# Test conditions: female, Sprague-Dawley, rat, plasma, po, 20 mg/kg
Measured property: AUC(0-inf) (ng·h/mL)
Reply numerically in ng·h/mL, unit not repeated.

Qu. Recorded AUC(0-inf) of Cc1cc(Nc2ccc(C(=O)N/N=C/c3scnc3C)cc2)c2cccc(O)c2n1 , please.
Ans. 170

====

# Experiment summary: In vivo PK study
# Set-up: species or system Sprague-Dawley (SD) rats
# Test conditions: female, Sprague-Dawley, rat, plasma, po, 20 mg/kg
Measured property: Cmax
Answer format reminder: number followed by unit.

Qu. Recorded Cmax of Cc1cc(Nc2ccc(C(=O)N/N=C/c3scnc3C)cc2)c2cccc(O)c2n1 [TMHA37] , please.
Ans. 19.6 ng/mL

====

Exercise: state measured pIC50 for each of the compounds provided.
# Test system: HuH7
# Experiment summary: MTT assay, HuH7 cells
# Format: cell-based, human
# Test conditions: Homo sapiens, Huh-7, 48 h, read-out: IC50 HuH7
The quantity pIC50 is defined as the negative base-10 logarithm of the molar concentration.

Qu. Recorded pIC50 of Cc1cc(Nc2ccc(C(=O)N/N=C/c3ccc(C(F)(F)F)cc3)cc2)c2cccc(O)c2n1 , please.
Ans. 4.63

Qu. Likewise for Cc1cc(Nc2ccc(C(=O)N/N=C/c3cc(C(F)(F)F)ccc3F)cc2)c2cccc(O)c2n1 ?
Ans. 4.72

Qu. Likewise for COc1ccc(/C=N/NC(=O)c2ccc(Nc3cc(C)nc4c(O)cccc34)cc2)c2ccccc12 ?
Ans. 4.68

Qu. Likewise for Cc1cc(Nc2ccc(C(=O)N/N=C/c3ccc(Br)c(F)c3)cc2)c2cccc(O)c2n1 ?
Ans. 4.62

Qu. Likewise for Cc1cc(Nc2ccc(C(=O)N/N=C/c3cccc(Br)n3)cc2)c2cccc(O)c2n1 ?
Ans. 4.49

Qu. Likewise for Cc1cc(Nc2ccc(C(=O)N/N=C/c3cc4ccccc4nc3Cl)cc2)c2cccc(O)c2n1 ?
Ans. 4.51

Qu. Likewise for Cc1cc(Nc2ccc(C(=O)N/N=C/c3ccsc3)cc2)c2cccc(O)c2n1 ?
Ans. 4.50

Qu. Likewise for Cc1cc(Nc2ccc(C(=O)N/N=C/c3csc4ccccc34)cc2)c2cccc(O)c2n1 ?
Ans. 4.69

Qu. Likewise for C#Cc1ccc(/C=N/NC(=O)c2ccc(Nc3cc(C)nc4c(O)cccc34)cc2)cc1 ?
Ans. 4.89

Qu. Likewise for CSc1ccc(/C=N/NC(=O)c2ccc(Nc3cc(C)nc4c(O)cccc34)cc2)cc1 ?
Ans. 4.59

Qu. Likewise for Cc1cc(Nc2ccc(C(=O)N/N=C/c3scnc3C)cc2)c2cccc(O)c2n1 ?
Ans. 5.39

Qu. Likewise for Cc1cc(Nc2ccc(C(=O)N/N=C/c3sccc3Br)cc2)c2cccc(O)c2n1 ?
Ans. 4.74

Qu. Likewise for Cc1cc(Nc2ccc(C(=O)N/N=C/c3cccc(C(F)(F)F)c3)cc2)c2cccc(O)c2n1 ?
Ans. 5.16

Qu. Likewise for Cc1cc(Nc2ccc(C(=O)N/N=C/c3ccc(F)c(Br)c3)cc2)c2cccc(O)c2n1 ?
Ans. 4.81

Qu. Likewise for Cc1cc(Nc2ccc(C(=O)N/N=C/c3cc(Br)cs3)cc2)c2cccc(O)c2n1 ?
Ans. 4.67

Qu. Likewise for COc1cc(/C=N/NC(=O)c2ccc(Nc3cc(C)nc4c(O)cccc34)cc2)cc(OC)c1 ?
Ans. 4.59

Qu. Likewise for Cc1cc(Nc2ccc(C(=O)N/N=C/c3cccc(F)c3F)cc2)c2cccc(O)c2n1 ?
Ans. 4.80

Qu. Likewise for Cc1cc(Nc2ccc(C(=O)N/N=C/c3ccc4ccccc4c3)cc2)c2cccc(O)c2n1 ?
Ans. 4.79
